Where a SMILES comes first, the peptide text is derived from it. [ ]: non-standard residue; d: D form. ξ: configuration not given here. ξW = NC(Cc1c[nH]c2ccccc12)C(=O)O
Measured logP by item

// known answers, use as guide
{"compound": "COc1ccc(NC(=O)OCCN2CCCCC2)cc1", "assay_metric": "logP", "measured_value": 2.95}
{"compound": "NCC(=O)NC(Cc1c[nH]c2ccccc12)C(N)=O (configuration not stated) (H-Gly-[ξW]-NH2)", "assay_metric": "logP", "measured_value": -0.48}
{"compound": "CC1CCN(CC2CN=C(N)O2)CC1 (configuration not stated)", "assay_metric": "logP", "measured_value": 0.91}
{"compound": "CCOC(=O)C(C)c1ccc2cc(OC)ccc2c1 (configuration not stated)", "assay_metric": "logP", "measured_value": 3.51}
{"compound": "COc1ccc(-c2ccoc2)cc1CNC1CCCNC1c1ccccc1 (configuration not stated)", "assay_metric": "logP", "measured_value": 4.2}

*Q* If you can, please state the reported logP value of Cc1ccc(OCC2CN=C(N)O2)c(C)c1 (configuration not stated) .
*A* 2.23

*Q* If you can, please state the reported logP value of C#CCC(O)(c1ccc(C(C)C)cc1)c1cccnc1 (configuration not stated) .
*A* 2.16

====

Labels assigned by logP range: one: < 1; two: ≥ 1 and < 3; three: ≥ 3

*Q* Exam item: assign CCNC(=O)NS(=O)(=O)c1cnccc1NC1CCCCCCC1 to the correct category.
*A* three

*Q* Exam item: assign CC(=O)NCCC(=O)NCc1c(O)c(=O)cc(C)n1C to the correct category.
*A* one

*Q* Exam item: assign COc1ccc(C2Cc3c(ccc(Br)c3OC)N(CCN(C)C)C(=O)C2OC(C)=O)cc1 (configuration not stated) to the correct category.
*A* three

*Q* Exam item: assign COc1c2oc(=O)c(C)cc2cc2c(C)c(C)oc12 to the correct category.
*A* three

*Q* Exam item: assign C[N+](C)([O-])C(c1ccccc1)c1ccccc1 to the correct category.
*A* one

====

Where a SMILES comes first, the peptide text is derived from it.
assay_metric: logP
Enter the number alone.

{"molecule": "O=C(Nc1ccccc1C(=O)O)c1ccccc1", "logP": 3.54}
{"molecule": "CC(C)(O)C1CCC2(C)CCCC(O)C2C1 (configuration not stated)", "logP": 2.68}

*Q* If you can, please state the reported logP value of CC(C)NC(=O)Cn1cccc(O)c1=O .
*A* -0.34

*Q* If you can, please state the reported logP value of CC(=O)OC(C)(C)C1CCC2(C)CCCC(O)C2C1 (configuration not stated) .
*A* 3.62

*Q* If you can, please state the reported logP value of CC(C)C(N)C(=O)NCC(=O)NC(Cc1ccccc1)C(=O)NC(C(=O)NC(Cc1ccccc1)C(=O)O)C(C)C (configuration not stated) (H-VGFVF-OH; configuration not given here) .
*A* -0.5

====

Where a SMILES comes first, the peptide text is derived from it.
Measured logP by item
Enter the number alone.

// known answers, use as guide
{"compound": "O=C(c1ccccn1)n1c(=O)[nH]cc(F)c1=O", "assay_metric": "logP", "measured_value": -0.06}
{"compound": "CCCOc1ccccc1NC(=O)OCCN1CCCCC1", "assay_metric": "logP", "measured_value": 4.23}
{"compound": "COc1ccc(C2Cc3c(cccc3[N+](=O)[O-])N(CCN(C)C)C(=O)C2OC(C)=O)cc1 (configuration not stated)", "assay_metric": "logP", "measured_value": 3.7}
{"compound": "Cc1ccc2c(c1)OCN(CCO[N+](=O)[O-])C2=O", "assay_metric": "logP", "measured_value": 2.44}

*Q* If you can, please state the reported logP value of CC(C)NC(=NC#N)NS(=O)(=O)c1cnccc1Nc1ccc(Cl)c(C(F)(F)F)c1 .
*A* 3.27

*Q* If you can, please state the reported logP value of NC(=O)C(Cc1c[nH]c2ccccc12)NC(=O)C(N)Cc1ccccc1 (stereo not drawn) (H-Phe-Trp-NH2; configuration not given here) .
*A* 1.38

*Q* If you can, please state the reported logP value of COc1ccc(C2=NC(C)(C(=O)O)CS2)c(O)c1OC (configuration not stated) .
*A* 1.4

*Q* If you can, please state the reported logP value of CC(C)CC(NC(=O)C(C)N)C(=O)NC(CC(C)C)C(=O)NCC(=O)NC(Cc1ccccc1)C(=O)O (configuration not stated) (H-ALLGF-OH; configuration not given here) .
*A* -0.63

*Q* If you can, please state the reported logP value of CN(C)CCCCc1ccccc1 .
*A* 3.15

Data provenance: the OPERA property sets (Mansouri et al. 2018)
